targetDesc: HDAC6 (Homo sapiens, UniProt Q9UBN7)
Construct: BC069243; Cat. #50006) is full-length with N-terminal GST tag; GST (N); purchased BPS Biosciences 50006; host or cells: baculovirus infected Sf9 cells
Sequence (Q9UBN7 whole entry): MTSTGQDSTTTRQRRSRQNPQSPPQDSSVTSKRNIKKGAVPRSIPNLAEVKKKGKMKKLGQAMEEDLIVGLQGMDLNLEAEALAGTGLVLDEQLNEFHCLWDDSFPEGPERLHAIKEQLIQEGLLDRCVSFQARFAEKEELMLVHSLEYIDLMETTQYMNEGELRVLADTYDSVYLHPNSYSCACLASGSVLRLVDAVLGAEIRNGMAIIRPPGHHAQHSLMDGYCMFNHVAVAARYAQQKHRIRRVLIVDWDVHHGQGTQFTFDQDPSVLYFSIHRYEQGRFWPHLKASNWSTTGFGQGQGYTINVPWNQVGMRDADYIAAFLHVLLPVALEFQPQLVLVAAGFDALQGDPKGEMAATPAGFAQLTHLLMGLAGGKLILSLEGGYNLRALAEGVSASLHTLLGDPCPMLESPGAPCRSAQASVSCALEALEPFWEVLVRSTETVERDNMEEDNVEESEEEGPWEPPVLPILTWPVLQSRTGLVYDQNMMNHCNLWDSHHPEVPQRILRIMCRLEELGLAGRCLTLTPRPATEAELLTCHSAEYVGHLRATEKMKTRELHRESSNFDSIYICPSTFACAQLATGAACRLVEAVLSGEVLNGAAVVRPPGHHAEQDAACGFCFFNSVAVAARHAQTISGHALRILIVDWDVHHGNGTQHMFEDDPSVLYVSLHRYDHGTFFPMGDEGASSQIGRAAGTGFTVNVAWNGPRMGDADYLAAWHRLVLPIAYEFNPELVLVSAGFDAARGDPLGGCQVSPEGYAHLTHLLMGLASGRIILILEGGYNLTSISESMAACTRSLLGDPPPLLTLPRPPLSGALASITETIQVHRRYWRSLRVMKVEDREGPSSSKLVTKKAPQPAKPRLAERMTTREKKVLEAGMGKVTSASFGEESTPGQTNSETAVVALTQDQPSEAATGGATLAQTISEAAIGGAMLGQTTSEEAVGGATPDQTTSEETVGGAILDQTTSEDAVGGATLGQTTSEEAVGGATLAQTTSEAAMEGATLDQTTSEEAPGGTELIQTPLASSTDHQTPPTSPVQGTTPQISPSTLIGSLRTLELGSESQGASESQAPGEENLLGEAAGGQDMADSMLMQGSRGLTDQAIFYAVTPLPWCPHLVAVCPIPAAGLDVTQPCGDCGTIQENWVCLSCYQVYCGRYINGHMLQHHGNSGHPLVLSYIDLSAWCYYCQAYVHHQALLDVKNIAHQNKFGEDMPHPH
assayComment: HDAC enzyme activity assay (fluorogenic substrate), HDAC6
Type: biochemical
settings: recombinant enzyme; read-out: HDAC6 inhibition (IC50)
readout: IC50

For orientation, consider the following solved cases.
CCCc1nn(C)c2c(=O)[nH]c(-c3cc(CC4CC(C(=O)NO)C4)ccc3OCC)nc12 (stereo not drawn) [Example 1-62]: 10 to 1000 nM
CCCc1nn(C)c2c(=O)[nH]c(-c3cc(C4CCC(C(=O)NO)CC4)ccc3OCC)nc12 (stereo not drawn) [Example 1-41]: 1000 to 10000 nM
CCCc1nn(C)c2c(=O)[nH]c(-c3cc(CN4CCC(C(=O)NO)CC4)ccc3OCC)nc12: 1000 to 10000 nM
CCCc1nn(C)c2c(=O)[nH]c(-c3cc(N4CCC5(CC5C(=O)NO)C4)ccc3OCC)nc12 (stereo not drawn): > 10000 nM
CCCc1nn(C)c2c(=O)[nH]c(-c3cc(C(=O)NO)ccc3OCC)nc12: > 10000 nM

I have 8 compounds here; please give me IC50 for each one.
1. CCCc1nn(C)c2c(=O)[nH]c(-c3cc(C4=CCC(CC(=O)NO)CC4)ccc3OCC)nc12 (stereo not drawn)
2. CCCc1nc(C)c2c(=O)[nH]c(-c3cc(C4CCC(C(=O)NO)CC4)ccc3OCC)nn12 (racemic) [Example 2-12]
3. CC(c1nc2c(cnn2C2CCOCC2)c(=O)[nH]1)N1CC(Cc2ccc(C(=O)NO)cc2)C1 (stereo not drawn)
4. C[C@@H]1CN(Cc2ccc(C(=O)NO)cc2)C[C@H]1c1nc2c(cnn2C2CCCC2)c(=O)[nH]1 (racemic)
5. CCCc1nn(C)c2c(=O)[nH]c(-c3cc(-c4ccc(C(=O)NO)nc4)ccc3OCC)nc12
6. CCCc1nn(C)c2c(=O)[nH]c(-c3cc(Cc4ccc(C(=O)NO)cc4F)ccc3OCC)nc12
7. C[C@@H]1CN(Cc2ccc(C(=O)NO)s2)C[C@H]1c1nc2c(cnn2C2CCOCC2)c(=O)[nH]1 (racemic)
8. CCCc1nn(C)c2c(=O)[nH]c(-c3cc(CC4CCC(C(=O)NO)CC4)ccc3OCC)nc12 (stereo not drawn) [Example 1-28]

1: 10 to 1000 nM; 2: 1000 to 10000 nM; 3: 10 to 1000 nM; 4: 10 to 1000 nM; 5: 10 to 1000 nM; 6: 10 to 1000 nM; 7: 10 to 1000 nM; 8: 10 to 1000 nM

I have 2 compounds here; please give me IC50 for each one.
1. CCCc1nn(C)c2c(=O)[nH]c(-c3cc(-c4ccc(C(=O)NO)cn4)ccc3OCC)nc12
2. CCCc1nn(C)c2c(=O)[nH]c(-c3cc(S(=O)(=O)N4CCN(c5ncc(C(=O)NO)cn5)CC4)ccc3OCC)nc12

["10 to 1000 nM", "10 to 1000 nM"]

---

targetDesc: HDAC2 (Homo sapiens)
Construct: NM_001527; Cat. #50002) is full-length with C-terminal his tag; His (C); purchased BPS Biosciences 50002; host or cells: baculovirus infected Sf9 cells
Sequence (Q92769 whole entry): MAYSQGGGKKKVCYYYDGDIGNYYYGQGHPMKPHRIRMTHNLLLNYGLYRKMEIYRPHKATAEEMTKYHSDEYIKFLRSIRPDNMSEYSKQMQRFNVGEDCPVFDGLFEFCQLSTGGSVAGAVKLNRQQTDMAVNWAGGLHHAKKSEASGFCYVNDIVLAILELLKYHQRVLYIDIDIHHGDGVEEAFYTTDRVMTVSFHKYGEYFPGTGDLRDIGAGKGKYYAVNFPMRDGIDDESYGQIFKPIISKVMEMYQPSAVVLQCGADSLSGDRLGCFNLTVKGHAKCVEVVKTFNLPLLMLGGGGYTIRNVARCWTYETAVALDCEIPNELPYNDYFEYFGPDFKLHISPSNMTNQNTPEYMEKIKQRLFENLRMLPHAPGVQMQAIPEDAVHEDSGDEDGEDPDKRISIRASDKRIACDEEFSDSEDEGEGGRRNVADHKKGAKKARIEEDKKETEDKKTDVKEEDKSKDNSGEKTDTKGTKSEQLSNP
assayComment: HDAC enzyme activity assay (fluorogenic substrate), HDAC2
Format: biochemical
settings: recombinant enzyme; read-out: HDAC2 inhibition (IC50)
readout: IC50

For orientation, consider the following solved cases.
CCCc1nc(C)c2c(=O)[nH]c(-c3cc(CC4CC(C(=O)NO)C4)ccc3OCC)nn12 (stereo not shown): 1 to 10 µM
CCCc1nn(C)c2c(=O)[nH]c(-c3cc(CC4CCC(CC(=O)NO)CC4)ccc3OCC)nc12 (racemic): > 10 µM
CCCc1nn(C)c2c(=O)[nH]c(-c3cc(N4CCC(CCC(=O)NO)CC4)ccc3OCC)nc12: 1 to 10 µM
CCCc1nn(C)c2c(=O)[nH]c(-c3cc(CC4CCN(c5ccc(C(=O)NO)cn5)CC4)ccc3OCC)nc12: 1 to 10 µM
CCCc1nn(C)c2c(=O)[nH]c(-c3cc(N4CCC5(CC5C(=O)NO)C4)ccc3OCC)nc12 (stereo not shown): > 10 µM

I have 2 compounds here; please give me IC50 for each one.
1. CCCc1nn(C)c2c(=O)[nH]c(-c3cc(CC4CCC(C(=O)NO)CC4)ccc3OCC)nc12 (stereo not shown) [Example 1-29]
2. CCCc1nn(C)c2c(=O)[nH]c(-c3cc(CC4CCN(CC(=O)NO)CC4)ccc3OCC)nc12

1: > 10 µM; 2: > 10 µM

---

targetDesc: PDE9A isoform b (Homo sapiens, UniProt O76083)
Construct: they are full-length with N-terminal GST tag; GST (N)
Sequence (O76083 1-533 isoform O76083-2): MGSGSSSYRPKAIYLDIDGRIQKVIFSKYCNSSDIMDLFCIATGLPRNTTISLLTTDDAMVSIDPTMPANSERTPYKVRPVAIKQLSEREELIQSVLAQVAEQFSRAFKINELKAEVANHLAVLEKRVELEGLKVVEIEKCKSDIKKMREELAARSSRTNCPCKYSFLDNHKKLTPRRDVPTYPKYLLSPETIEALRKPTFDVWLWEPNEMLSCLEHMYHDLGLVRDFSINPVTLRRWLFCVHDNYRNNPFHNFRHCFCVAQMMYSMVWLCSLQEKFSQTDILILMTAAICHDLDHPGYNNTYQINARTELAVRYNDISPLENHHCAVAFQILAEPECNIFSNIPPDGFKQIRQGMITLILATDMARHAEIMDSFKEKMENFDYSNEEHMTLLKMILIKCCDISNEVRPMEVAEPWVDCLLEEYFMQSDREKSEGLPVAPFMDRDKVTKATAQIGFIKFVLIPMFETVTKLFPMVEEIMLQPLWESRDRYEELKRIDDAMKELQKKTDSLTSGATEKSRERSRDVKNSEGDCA
assayComment: PDE enzyme activity assay (HTRF cGMP), PDE9A
settings: recombinant enzyme; read-out: PDE9A inhibition (IC50)
Consider the following compounds; for each one, report its IC50.

CCCc1nn(C)c2c(=O)[nH]c(-c3cc(S(=O)(=O)Nc4ccc(/C=C/C(=O)NO)cc4)ccc3OCC)nc12 [Example 1-03]: 1000 to 10000 nM
CC1CN(CC2CC(C(=O)NO)C2)CC1c1nc2c(cnn2C2CCOCC2)c(=O)[nH]1 (racemic) [Example 3-12]: 10 to 1000 nM
CC1CN(CC2CCN(c3ncc(C(=O)NO)cn3)CC2)CC1c1nc2c(cnn2C2CCOCC2)c(=O)[nH]1 (racemic) [Example 3-02]: 10 to 1000 nM
C[C@@H]1CN(Cc2ccc(C(=O)NO)s2)C[C@H]1c1nc2c(cnn2C2CCOCC2)c(=O)[nH]1 (racemic) [Example 3-10]: 10 to 1000 nM
CC(c1nc2c(cnn2C2CCOCC2)c(=O)[nH]1)N1CC(Oc2ccc(N3CCC(C(=O)NO)CC3)cc2)C1 (stereo not shown) [Example 3-05]: 10 to 1000 nM
C[C@@H]1CN(Cc2ccc(C(=O)NO)cc2)C[C@H]1c1nc2c(cnn2C2CCCC2)c(=O)[nH]1 (racemic) [Example 3-11]: 10 to 1000 nM

What does the record list as IC50 for CN1CC(=O)N2[C@H](c3ccc4c(c3)OCO4)c3[nH]c4ccccc4c3C[C@@H]2C1=O [Tadalafil, reference compound] ?
> 10000 nM

---

targetDesc: PDE4A1 (Homo sapiens)
Construct: they are full-length with N-terminal GST tag; GST (N); purchased BPS Biosciences 60040; host or cells: baculovirus infected Sf9 cells
Sequence (P27815 1-647 isoform P27815-4): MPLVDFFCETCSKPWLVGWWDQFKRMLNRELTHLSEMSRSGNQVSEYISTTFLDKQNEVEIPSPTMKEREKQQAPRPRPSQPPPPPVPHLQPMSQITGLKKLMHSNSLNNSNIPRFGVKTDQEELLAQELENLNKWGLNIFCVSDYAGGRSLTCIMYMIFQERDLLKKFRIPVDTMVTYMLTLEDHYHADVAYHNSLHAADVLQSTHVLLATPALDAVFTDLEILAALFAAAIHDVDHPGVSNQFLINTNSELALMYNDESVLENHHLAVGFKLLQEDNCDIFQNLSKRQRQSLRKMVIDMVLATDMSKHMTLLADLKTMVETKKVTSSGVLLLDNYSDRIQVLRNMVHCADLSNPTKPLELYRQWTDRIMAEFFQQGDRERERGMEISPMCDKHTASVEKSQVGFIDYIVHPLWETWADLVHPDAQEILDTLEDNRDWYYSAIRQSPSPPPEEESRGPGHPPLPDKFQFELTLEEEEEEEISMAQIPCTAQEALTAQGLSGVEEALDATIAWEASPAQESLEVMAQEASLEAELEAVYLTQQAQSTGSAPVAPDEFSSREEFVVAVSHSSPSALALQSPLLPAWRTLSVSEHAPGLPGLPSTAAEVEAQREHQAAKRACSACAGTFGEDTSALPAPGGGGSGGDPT
assayComment: PDE enzyme activity assay (HTRF cGMP), PDE4A1
Format: biochemical
settings: recombinant enzyme; read-out: PDE4A1 inhibition (IC50)
readout: IC50

COc1ccc(N(CCCCCCC(=O)NO)C(=O)c2c(Cl)cncc2Cl)cc1OC1CCCC1: 1 to 10 µM

Request - read-out IC50 | tested on PDE4A1 (Homo sapiens) | compound C[C@@H]1CN(Cc2ncccn2)C[C@H]1c1nc2c(cnn2C2CCOCC2)c(=O)[nH]1 [PF-4447943, reference compound]
1 to 10 µM

---

targetDesc: PDE4D7 (Homo sapiens, UniProt Q08499)
Sequence (Q08499 1-748 isoform Q08499-11): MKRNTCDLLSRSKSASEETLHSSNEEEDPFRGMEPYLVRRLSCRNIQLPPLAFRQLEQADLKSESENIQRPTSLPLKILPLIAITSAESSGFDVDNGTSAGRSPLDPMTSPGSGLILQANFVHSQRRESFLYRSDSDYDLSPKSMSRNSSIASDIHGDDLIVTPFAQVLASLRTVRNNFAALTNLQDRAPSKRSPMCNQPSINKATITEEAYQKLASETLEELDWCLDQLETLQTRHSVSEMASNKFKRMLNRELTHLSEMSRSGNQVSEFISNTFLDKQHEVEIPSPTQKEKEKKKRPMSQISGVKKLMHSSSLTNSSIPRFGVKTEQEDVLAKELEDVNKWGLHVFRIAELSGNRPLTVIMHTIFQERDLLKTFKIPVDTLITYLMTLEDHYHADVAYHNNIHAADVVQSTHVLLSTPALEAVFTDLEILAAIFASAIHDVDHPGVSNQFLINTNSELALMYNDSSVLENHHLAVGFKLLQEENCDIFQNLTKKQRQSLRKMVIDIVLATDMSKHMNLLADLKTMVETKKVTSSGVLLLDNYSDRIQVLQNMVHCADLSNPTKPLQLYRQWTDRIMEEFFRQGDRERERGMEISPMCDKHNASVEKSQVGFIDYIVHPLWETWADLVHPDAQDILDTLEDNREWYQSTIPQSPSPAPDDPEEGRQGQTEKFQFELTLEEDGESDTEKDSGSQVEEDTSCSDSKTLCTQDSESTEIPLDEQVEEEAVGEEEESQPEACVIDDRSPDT
assayComment: PDE enzyme activity assay (HTRF cGMP), PDE4D7
Format: biochemical
settings: recombinant enzyme; read-out: PDE4D7 inhibition (IC50)
pIC50: −log10 of the molar value.
readout: pIC50

What does the record list as pIC50 for "COc1ccc(N(CCCCCCC(=O)NO)C(=O)c2c(Cl)cncc2Cl)cc1OC1CCCC1" ?
< 5.00

---

targetDesc: HDAC2 (Homo sapiens)
Construct: NM_001527; Cat. #50002) is full-length with C-terminal his tag; His (C); purchased BPS Biosciences 50002; host or cells: baculovirus infected Sf9 cells
assayComment: HDAC enzyme activity assay (fluorogenic substrate), HDAC2
Format: biochemical
settings: recombinant enzyme; read-out: HDAC2 inhibition (IC50)
readout: IC50

CCCc1nn(C)c2c(=O)[nH]c(-c3cc(OCc4ccc(C(=O)NO)cc4)ccc3OCC)nc12: > 10000 nM

I have 5 compounds here; please give me IC50 for each one.
1. O=C(NO)c1cnc(N2CCC(CN3CC(=O)N4[C@H](c5ccc6c(c5)OCO6)c5[nH]c6ccccc6c5C[C@@H]4C3=O)CC2)nc1
2. CCCc1nn(C)c2c(=O)[nH]c(-c3cc(C4CC(C(=O)NO)C4)ccc3OCC)nc12 (stereo not drawn) [Example 1-84]
3. CCCc1nn(C)c2c(=O)[nH]c(-c3cc(OC4CCC(C(=O)NO)CC4)ccc3OCC)nc12 (stereo not drawn)
4. CCCc1nn(C)c2c(=O)[nH]c(-c3cc(CC4CCC(C(=O)NO)CC4)ccc3OCC)nc12 (stereo not drawn) [Example 1-28]
5. CCCc1nn(C)c2c(=O)[nH]c(-c3cc(S(=O)(=O)N4CCN(c5ncc(C(=O)NO)cn5)CC4)ccc3OCC)nc12

10 to 1000 nM
1000 to 10000 nM
1000 to 10000 nM
> 10000 nM
10 to 1000 nM

I have 4 compounds here; please give me IC50 for each one.
1. CCCc1nn(C)c2c(=O)[nH]c(-c3cc(CC4CC(C(=O)NO)C4)ccc3OCC)nc12 (stereo not drawn) [Example 1-63]
2. CCCc1nn(C)c2c(=O)[nH]c(-c3cc(CC4CC(C(=O)NO)C4)ccc3OCC)nc12 (racemic) [Example 1-19]
3. CCCc1nn(C)c2c(=O)[nH]c(-c3cc(C4CCC(C(=O)NO)CC4)ccc3OCC)nc12 (stereo not drawn) [Example 1-41]
4. CCCc1nn(C)c2c(=O)[nH]c(-c3cc(S(=O)(=O)N4CCN(CCCC(=O)NO)CC4)ccc3OCC)nc12

1. 1000 to 10000 nM
2. 10 to 1000 nM
3. > 10000 nM
4. 1000 to 10000 nM
